Data provenance is patent US8778896B2.

- Test system: streptococcus pneumoniae57
- test_description: MIC against the infecting test organism
- Type: cell-based, streptococcus pneumoniae
- run_conditions: read-out: MIC
Reported MIC values follow for various compounds
Kindly answer with a numeric value in µg/mL, unit omitted.

# compound, unit_string, reported_result
data = [
    ("CC[C@H]1OC(=O)[C@H](C)[C@@H](O[C@H]2C[C@@](C)(OC)[C@@H](O)[C@H](C)O2)[C@H](C)[C@@H](O[C@@H]2O[C@H](C)C[C@H](N(C)C)[C@H]2O)[C@](C)(O)C[C@@H](C)CN(C)[C@H](C)[C@@H](O)[C@]1(C)O [azithromycin, reference compound]", "µg/mL", 0.12),
]

Here is the next item to consider.
Request: GET /values?readout=MIC&item= COC1C(OC(C)=O)CC(=O)OC(C)C/C=C/C=C/C(OC2CCC(N(C)C)C(C)O2)C(C)CC(CC=O)C1OC1OC(C)C(OC2CC(C)(O)C(OC(=O)CC(C)C)C(C)O2)C(N(C)C)C1O (centres unmarked)
Response: 0.06
